Catalogue of TGI readings, one per entry.
# Test system: EKVX NSCLC
# RUN DESCRIPTION: NCI tumour cell line growth inhibition, 48 h
Express your answer in µM, writing the number without its unit.

Example entries and their recorded answers appear below.
[
  {
    "COMPOUND": "C=C1C(=O)O[C@H]2[C@H]1CC/C(COC(=O)NCc1c[nH]c3ccc(OC)cc13)=C\\CC[C@@]1(C)O[C@@H]21",
    "TARGET DESC": "EKVX NSCLC",
    "TGI / µM": 6.2
  },
  {
    "COMPOUND": "Cc1cc(=O)cc2sc3cc(Cl)ccc3nc1-2",
    "TARGET DESC": "EKVX NSCLC",
    "TGI / µM": 25
  },
  {
    "COMPOUND": "COC1OC(COCc2ccc(Cl)cc2)C(OCc2ccc(Cl)cc2)C1O (configuration not stated)",
    "TARGET DESC": "EKVX NSCLC",
    "TGI / µM": 46.3
  },
  {
    "COMPOUND": "CC(C)Cc1ccc(C(C)/C=C2\\CCC(CN3CCOCC3)C2=O)cc1 (configuration not stated)",
    "TARGET DESC": "EKVX NSCLC",
    "TGI / µM": 32.8
  },
  {
    "COMPOUND": "CCOC(=O)c1c(NS(=O)(=O)c2ccc(Br)cc2)sc2c1CCCC2",
    "TARGET DESC": "EKVX NSCLC",
    "TGI / µM": 11
  }
]

Return TGI (reported value) for this compound: Cc1cc(N2CCOCC2)nc(N(CCNc2ccnc3cc(Cl)ccc23)Cc2ccco2)n1
35.4

Return TGI (reported value) for this compound: CC(=O)OC[C@@]12CC[C@H]3C(C)(C)CCC[C@]3(C)[C@H]1C[C@@H](C1=CC(=O)O[C@H]1O)O2
24.3

Return TGI (reported value) for this compound: O=C1C(=O)c2ccccc2C=C1[N+](=O)[O-]
56.8

Return TGI (reported value) for this compound: CCN(CC)CC(O)CNc1ccc(NCC(O)CCl)c2c1C(=O)c1ccccc1C2=O (configuration not stated)
29.5

* * *

# Test system: HT29 colon
# RUN DESCRIPTION: NCI tumour cell line growth inhibition, 48 h; in the data active = GI50 below about 0.43 µM; inactive = the rest
Your reply should match one of these outcome classes. active, inactive

Use the examples below as a reference point.
[
  {
    "COMPOUND": "N#Cc1cc(-c2ccccc2)[nH]c1-c1nccc2ccccc12",
    "CLASS ASSIGNMENT": "inactive"
  },
  {
    "COMPOUND": "NC(=O)c1ncn(C2OC(CO)C(O)C2O)n1 (stereo not drawn)",
    "CLASS ASSIGNMENT": "inactive"
  }
]

# lookup: test call for O=C(/C=C/c1ccccc1Cl)c1ccc(O)cc1
inactive

# lookup: test call for COc1c(Nc2ncc(Cl)c(N[C@@H]3[C@H]4C=CC(C4)[C@@H]3C(N)=O)n2)ccc2c1CC[C@@H](N1CCOCC1)CC2
inactive

# lookup: test call for NC(=O)Cc1ccccc1Oc1nccc(-c2c(-c3ccc(F)cc3)ncn2C2CCNCC2)n1
inactive

# lookup: test call for Cc1nc(NC(=O)COc2cccc(/C=C3\COc4ccccc4C3=O)c2)sc1C
inactive

# lookup: test call for COC(=O)C1=C2C3=C(C(=O)c4ccccc4C3=O)N(Cc3ccccc3)C2(OC(C)=O)C=CC1=O (stereo not drawn)
inactive

* * *

Catalogue of GI50 readings, one per entry.
# Test system: MALME-3M melanoma
# RUN DESCRIPTION: NCI tumour cell line growth inhibition, 48 h

[
  {
    "COMPOUND": "CCOc1ccc(/C=N/Nc2cc(C)nc3ccc(Cl)cc23)cc1",
    "MEASUREMENT NAME": "GI50",
    "RESULT": "2.02 µM"
  },
  {
    "COMPOUND": "C[C@@]12CCC[C@@](C)(C(=O)O)C1CC[C@]13C=C(CO)[C@](O)(CCC12)C3 (some centres undefined)",
    "MEASUREMENT NAME": "GI50",
    "RESULT": "> 100 µM"
  }
]

Return GI50 (reported value) for this compound: CCC[CH2][Sn]([CH2]CCC)([O]C(=O)c1cc(OC)c(OC)c(OC)c1)[O]C(=O)c1cc(OC)c(OC)c(OC)c1
0.946 µM

Return GI50 (reported value) for this compound: O=C(O[C@H]1CN[C@H](C#Cc2cc3ncnc(Nc4ccc(Cc5ccccc5)cc4)c3s2)C1)N1CCOCC1
4.71 µM

* * *

# System: MDA-N
# RUN DESCRIPTION: NCI tumour cell line growth inhibition, 48 h
Catalogue of TGI readings, one per entry.

Example entries and their recorded answers appear below.
[
  {
    "COMPOUND": "C/C(=C\\CNc1ncnc2nc(Cl)[nH]c12)CO",
    "TGI": "> 100 µM"
  },
  {
    "COMPOUND": "CC(Br)C(=O)c1ccc2cc(Br)c3ccccc3c2c1 (stereo not drawn)",
    "TGI": "27 µM"
  },
  {
    "COMPOUND": "CN(C)C/C=C(/c1ccc(Br)cc1)c1cccnc1",
    "TGI": "> 100 µM"
  },
  {
    "COMPOUND": "COc1cccc(N=N/C(=N/NC(=O)c2cc(Cl)ccc2O)c2ccc(N(CCC#N)CCC#N)cc2C)c1",
    "TGI": "> 100 µM"
  },
  {
    "COMPOUND": "COc1ccc(Cc2cc(OC)c(OC)c(OC)c2)cc1O",
    "TGI": "> 100 µM"
  },
  {
    "COMPOUND": "COc1cccc2c3cccc(OC)c3c3[nH]cnc3c12",
    "TGI": "3.34 µM"
  }
]

Return TGI (reported value) for this compound: Cc1cc(NC(=O)NC(=O)c2ccccc2[N+](=O)[O-])ccc1Oc1ncc(Cl)cn1
29.5 µM

Return TGI (reported value) for this compound: NC(=S)SC1=NNC2(C(=O)N1)c1ccccc1-c1ccccc12
> 10 µM

Return TGI (reported value) for this compound: O=C(CN1CCOCC1)c1ccc2[nH]c(=O)oc2c1
> 100 µM

Return TGI (reported value) for this compound: Nc1sccc1S(=O)(=O)c1ccsc1N
> 100 µM

Return TGI (reported value) for this compound: O=P(O)(O)OP(=O)(O)O
> 100 µM

* * *

Catalogue of GI50 readings, one per entry.
# Tested on: RPMI-8226 leukemia
# RUN DESCRIPTION: NCI tumour cell line growth inhibition, 48 h

Example entries and their recorded answers appear below.
[
  {
    "COMPOUND": "O=C(O[C@H]1CN[C@H](C#Cc2cc3ncnc(Nc4ccc(Cc5ccccc5)cc4)c3s2)C1)N1CCOCC1",
    "GI50": "6470 nM"
  },
  {
    "COMPOUND": "CNC(=O)c1cc(Oc2ccc3nc(NC(=O)c4cc(C(F)(F)F)cc(C(F)(F)F)c4)sc3c2)ccn1",
    "GI50": "2420 nM"
  },
  {
    "COMPOUND": "COC(=O)c1c2c(c[n+]([O-])c1C)C(=O)C(NCc1ccccc1)=CC2=O",
    "GI50": "996 nM"
  },
  {
    "COMPOUND": "CCC[CH2][Sn]([CH2]CCC)([O]C(=O)c1cc(OC)c(OC)c(OC)c1)[O]C(=O)c1cc(OC)c(OC)c(OC)c1",
    "GI50": "445 nM"
  },
  {
    "COMPOUND": "C=CC[Se]C(=O)c1ccccc1OC(C)=O",
    "GI50": "2220 nM"
  }
]

# ---- query compound ----
Return GI50 (reported value) for this compound: CCOc1ccc(/C=N/Nc2cc(C)nc3ccc(Cl)cc23)cc1
1940 nM

* * *

Catalogue of GI50 readings, one per entry.
# Tested on: OVCAR-4 ovarian
# RUN DESCRIPTION: NCI tumour cell line growth inhibition, 48 h

Example entries and their recorded answers appear below.
[
  {
    "MOLECULE": "CCC[CH2][Sn]([CH2]CCC)([O]C(=O)c1cc(OC)c(OC)c(OC)c1)[O]C(=O)c1cc(OC)c(OC)c(OC)c1",
    "TARGET DESC": "OVCAR-4 ovarian",
    "GI50": "1.48 µM"
  },
  {
    "MOLECULE": "N#Cc1cc(-c2ccccc2)[nH]c1-c1nccc2ccccc12",
    "TARGET DESC": "OVCAR-4 ovarian",
    "GI50": "3.43 µM"
  },
  {
    "MOLECULE": "CN(C)c1cc2c(cc1Sc1nc3c(N)nccc3n1CCNCC(C)(C)C)OCO2",
    "TARGET DESC": "OVCAR-4 ovarian",
    "GI50": "6.17 µM"
  },
  {
    "MOLECULE": "COc1ccc(Nc2nc(NCc3ccccc3)c3ccccc3n2)cc1",
    "TARGET DESC": "OVCAR-4 ovarian",
    "GI50": "3.11 µM"
  },
  {
    "MOLECULE": "O=Cc1ncc(-c2ccc(C(F)(F)F)cc2)c(NC2CCCCCC2)n1",
    "TARGET DESC": "OVCAR-4 ovarian",
    "GI50": "> 10 µM"
  },
  {
    "MOLECULE": "CCOc1ccc(/C=N/Nc2cc(C)nc3ccc(Cl)cc23)cc1",
    "TARGET DESC": "OVCAR-4 ovarian",
    "GI50": "1.79 µM"
  },
  {
    "MOLECULE": "O=C(c1ccc(F)c(F)c1Nc1ccc(I)cc1F)N1CC(O)([C@H]2CCCCN2)C1",
    "TARGET DESC": "OVCAR-4 ovarian",
    "GI50": "3.81 µM"
  }
]

# ---- query molecule ----
Retrieve GI50 on OVCAR-4 ovarian; query COc1cc(C2=Nc3c/c(=C\c4c(O)[nH]c5ccc(Cl)cc45)ccc3=N2)cc(OC)c1OC
2.18 µM
